- systemName: NGF (nerve growth factor) (Homo sapiens, UniProt P01138 P01138:122-241)
- Sequence (P01138 122-241, one chain of several): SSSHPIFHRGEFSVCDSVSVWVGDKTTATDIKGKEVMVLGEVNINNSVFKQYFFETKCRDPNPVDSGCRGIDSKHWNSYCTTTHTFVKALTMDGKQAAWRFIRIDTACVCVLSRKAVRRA
- assayOverview: cell_activity; neurite; TF-1 >0.3
- setupConditions: tags: R&D Systems; chain copies: 2
measurementLabel: IC50 (nM)
# value in nM; strip the unit string

binder	IC50 [nM]
GGGUCCUGGAUAAGAGUUUCCGUCUCGUAUCCUGUUACCC (ssRNA, as 82(48) without 5' idT; PS between A13 and G14) [SEQ ID NO: 82(61)]	0.031
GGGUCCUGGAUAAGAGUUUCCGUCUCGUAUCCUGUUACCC (ssRNA, as 82(48) without 5' idT; PS between U11 and A12) [SEQ ID NO: 82(59)]	0.034

API: the following record is the query input.
Recorded IC50 for GGGUCCUGUCUAAGAGUUUCCGUCUCGUAGACUGUUACCC (ssRNA, 2'-OMe except 2'-F C5,U7,U17-19,C20,C24,U25,U33,U36, 2'-OH G8,G34, dA12,dA13; 3' idT) [SEQ ID NO: 111(1)] , please? 0.06
